B1: POU domain, class 3, transcription factor 2, residues 262 to 338; numbered along this chain, P20265 (parent)
chain: EDTPTSDDLEQFAKQFKQRRIKLGFTQADVGLALGTLYGNVFSQTTICRFEALQLSFKNMCKLKPLLNKWLEEADSS

- Variants of: B1
- protocol.text: abundance fitness (aPCA) (normalised: wild type 0, dead -1); higher = more abundant; growth selection in yeast, the domain comes from the species named
- condition.context: Homo sapiens
Record form. Attribute: abundance fitness. Fill in for each entry.
Give the value as a plain number.

// query Could you share which abundance fitness value was measured for D75F ?
// result -0.3

// query Could you share which abundance fitness value was measured for G31M ?
// result -0.291

// query Could you share which abundance fitness value was measured for E51V ?
// result -0.965

// query Could you share which abundance fitness value was measured for F57K ?
// result 0.026

// query Could you share which abundance fitness value was measured for A52S ?
// result 0.015

// query Could you share which abundance fitness value was measured for D29Y ?
// result -0.251

// query Could you share which abundance fitness value was measured for I47D ?
// result -0.786

// query Could you share which abundance fitness value was measured for T36A ?
// result -0.021

// query Could you share which abundance fitness value was measured for L37D ?
// result -0.118
